Test system: mouse femoral head cartilage
assay.protocol: Mouse explant assay (IL-1α induced GAG release)
Assay type: cell-based
stated.conditions: inhibition of GAG release, IL-1α 1 ng/ml, 72 hours, compound 20 μM
Assign class by inhibition at 20 µM: not lower than 70% means label 1; lower than 70% means label 0.

>>> cat("C[C@@H]1c2cc(Cl)c(Cl)cc2CN1C(=O)CC[C@@]1(C2CC2)NC(=O)NC1=O [Example 66-2]")
"label 1"
>>> cat("O=C1NC(=O)[C@](CCC(=O)N2Cc3cc(Br)c(C(F)(F)F)cc3C2)(C2CC2)N1 [Example 59]")
"label 0"
>>> cat("O=C1NC(=O)C(CC(CO)C(=O)N2Cc3cc(Cl)c(Cl)cc3C2)(C2CC2)N1 (stereo not drawn) [Example 42]")
"label 1"
>>> cat("O=C1NC(=O)[C@](CCC(=O)N2Cc3ccc(C(F)F)cc3C2)(C2CC2)N1 [Example 52]")
"label 0"

input: Is the recorded value of inhibition at 20 µM equal to or greater than 70% for this compound? O=C1NC(=O)[C@](CCC(=O)N2Cc3cc(Cl)c(Cl)cc3C2)(C2CC2)N1 [Example 20]
output: label 1

---

target.or.test.system: ADAMTS-5 recombinant protein (Homo sapiens (Human), UniProt Q9UNA0)
Sequence (Q9UNA0 262-622): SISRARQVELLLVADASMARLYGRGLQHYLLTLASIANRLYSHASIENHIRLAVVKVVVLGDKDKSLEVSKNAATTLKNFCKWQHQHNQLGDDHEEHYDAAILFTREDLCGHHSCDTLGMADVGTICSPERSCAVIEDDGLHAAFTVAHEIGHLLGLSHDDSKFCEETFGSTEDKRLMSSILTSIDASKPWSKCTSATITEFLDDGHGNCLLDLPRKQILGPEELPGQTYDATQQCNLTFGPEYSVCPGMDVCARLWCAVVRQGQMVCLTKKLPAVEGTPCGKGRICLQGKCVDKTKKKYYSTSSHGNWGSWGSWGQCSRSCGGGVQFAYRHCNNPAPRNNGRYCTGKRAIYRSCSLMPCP
assay.protocol: In vitro fluorescence (FRET-peptide) enzymatic assay of ADAMTS-5 activity
Format: biochemical
stated.conditions: FRET peptide substrate 8 μM, 10 nM enzyme, 37° C. 3 hours
readout.kind: pIC50
Numbers only, as −log10 of the molar value.

>>> recorded_number("CC1c2cc(Cl)c(Cl)cc2CN1C(=O)CC[C@@]1(C2CC2)NC(=O)NC1=O (some centres unmarked) [Example 66]")
7.28
>>> recorded_number("COc1cccc2c1CCN(C(=O)CC[C@@]1(C3CC3)NC(=O)NC1=O)CC2 [Example 25]")
5.44
>>> recorded_number("CC(C[C@@]1(C2CC2)NC(=O)NC1=O)C(=O)N1Cc2cc(Cl)c(Cl)cc2C1 (mixture of isomers) [Example 34-2]")
8.05
>>> recorded_number("C[C@@H]1c2ccccc2CN1C(=O)CC[C@@]1(C2CC2)NC(=O)NC1=O [Example 14]")
6.00

Please give pIC50, item by item, for the list that follows.
1. O=C1NC(=O)[C@](CCC(=O)N2Cc3ccc(C(F)F)cc3C2)(C2CC2)N1 [Example 52]
2. O=C1NC(=O)[C@](CCC(=O)N2Cc3cc(F)c(F)cc3C2)(C2CC2)N1 [Example 19]
3. Cc1cc2c(cc1Cl)CN(C(=O)CC[C@@]1(C3CC3)NC(=O)NC1=O)C2 [Example 57]
4. O=C1NC(=O)[C@](CCC(=O)N2CCc3cc(C(F)(F)F)ccc3C2)(C2CC2)N1 [Example 6]

output:
1. 7.18
2. 6.48
3. 6.89
4. 6.62

---

target.or.test.system: ADAMTS-5 recombinant protein (Homo sapiens (Human))
assay.protocol: In vitro fluorescence (FRET-peptide) enzymatic assay of ADAMTS-5 activity
Format: biochemical
stated.conditions: FRET peptide substrate 8 μM, 10 nM enzyme, 37° C. 3 hours
Protocol: A FRET (fluorescence resonance energy transfer) peptide was cleaved by recombinant ADAMTS-4 or ADAMTS-5 proteins into two separate fragments resulting in an increase of fluorescence signal which was quantified. […] An assay buffer containing 50 mM HEPES pH 7.5, 100 mM NaCl, 5 mM CaCl2, 0.1% CHAPS and 5% Glycerol was prepared. […] The fluorescence signal in each well was determined, after incubation at 37° C. for 3 hours, on a TECAN plate reader (Excitation, 490 nm; Emission, 520 nm). […]
readout.kind: pIC50
Answers are plain numbers, as −log10 of the molar value.

Answered examples (5):
>>> recorded_number("O=C1NC(=O)[C@](CCC(=O)N2Cc3ccc(OC(F)F)cc3C2)(C2CC2)N1")
6.59
>>> recorded_number("CCn1ccnc1C1(CCC(=O)N2Cc3cc(Cl)c(C(F)(F)F)cc3C2)NC(=O)NC1=O (centres unmarked)")
7.60
>>> recorded_number("O=C1NC(=O)[C@](CCC(=O)N2Cc3ccc(C(F)(F)F)cc3C2)(C2CC2)N1")
7.06
>>> recorded_number("O=C1NC(=O)[C@](CCC(=O)N2Cc3cc(F)c(C(F)F)cc3C2)(C2CC2)N1")
7.00
>>> recorded_number("CC1CN(C(=O)CC[C@@]2(C3CC3)NC(=O)NC2=O)CCc2ccc(F)cc21 (some centres unmarked)")
7.21

Please give pIC50, item by item, for the list that follows.
1. [2H]C1([2H])c2cc(Cl)c(C(F)(F)F)cc2C(C)N1C(=O)CC[C@@]1(C2CC2)NC(=O)NC1=O (some centres unmarked)
2. O=C1NC(=O)C(CCC(=O)N2Cc3ccc(C(F)(F)F)cc3C2)(c2ccccn2)N1 (centres unmarked)

output:
[7.59, 6.66]

input: Quick one: pIC50 for CC1c2cc(C(F)(F)F)c(Cl)cc2CN1C(=O)CC[C@@]1(C2CC2)NC(=O)NC1=O (some centres unmarked) ?
output: 7.68

---

target.or.test.system: ADAMTS-5 recombinant protein (Homo sapiens (Human), UniProt Q9UNA0)
assay.protocol: In vitro fluorescence (FRET-peptide) enzymatic assay of ADAMTS-5 activity
Format: biochemical
stated.conditions: FRET peptide substrate 8 μM, 10 nM enzyme, 37° C. 3 hours
Could you please mark condition met for values of IC50 below 40 nM and condition not met for values at or above it?

>>> cat("CC(C[C@@]1(C2CC2)NC(=O)NC1=O)C(=O)N1Cc2ccc(C(F)(F)F)cc2C1 (stereo partly shown)")
"condition met"
>>> cat("O=C1NC(=O)[C@](CCC(=O)N2Cc3ccc(CC(F)(F)F)cc3C2)(C2CC2)N1")
"condition not met"
>>> cat("Cn1ccc(C2(CCC(=O)N3Cc4cc(Cl)c(C(F)(F)F)cc4C3)NC(=O)NC2=O)n1 (stereo not shown)")
"condition not met"
>>> cat("CC1CN(C(=O)CC[C@@]2(C3CC3)NC(=O)NC2=O)CCc2ccc(Cl)c(Cl)c21 (stereo partly shown)")
"condition met"
>>> cat("C[C@H]1CN(C(=O)CC[C@@]2(C3CC3)NC(=O)NC2=O)CCc2ccc(F)cc21 (single isomer, unassigned)")
"condition not met"

Then this compound:
input: Is 40 nM strictly greater than the compound's reported IC50? compound: O=C1NC(=O)C(CC(COCc2ccccc2)C(=O)N2Cc3ccc(C(F)(F)F)cc3C2)(C2CC2)N1 (stereo not shown)
output: condition met

---

System: mouse femoral head cartilage
assay.protocol: Mouse explant assay (IL-1α induced GAG release)
Format: cell-based
stated.conditions: inhibition of GAG release, IL-1α 1 ng/ml, 72 hours, compound 2 μM
Description: In this assay, fresh mouse femoral head cartilage was treated with IL-1α protein (Sigma-Aldrich, catalog #12778) in culture media, which induces the cartilage catabolism. Then, the GAGs attached to the cleaved aggrecan fragments (released in the media) and the GAGs attached to the intact aggrecan were measured by dimethylmethylene blue dye in the Glycosaminoglycans Assay Kit (Chondrex, catalog #6022). […]
Assign class by inhibition at 2 µM: not lower than 30% means fulfilled; lower than 30% means not fulfilled.

>>> cat("O=C1NC(=O)[C@](CCC(=O)N2CCc3ccc(F)cc3CC2)(C2CC2)N1 [Example 44]")
"not fulfilled"
>>> cat("O=C1NC(=O)[C@](CCC(=O)N2CCc3ccc(C(F)(F)F)cc3CC2)(C2CC2)N1 [Example 45]")
"fulfilled"
>>> cat("C[C@@H]1c2cc(Cl)c(Cl)cc2CN1C(=O)CC[C@@]1(C2CC2)NC(=O)NC1=O [Example 66-2]")
"not fulfilled"
>>> cat("O=C1NC(=O)[C@](CCC(=O)N2Cc3ccc(C(F)F)cc3C2)(C2CC2)N1 [Example 52]")
"not fulfilled"

Then this compound:
input: Is the recorded value of inhibition at 2 µM equal to or greater than 30% for this compound? O=C1NC(=O)[C@](CCC(=O)N2Cc3cc(Br)c(C(F)(F)F)cc3C2)(C2CC2)N1 [Example 59]
output: not fulfilled

---

target.or.test.system: ADAMTS-5 recombinant protein (Homo sapiens (Human))
assay.protocol: In vitro fluorescence (FRET-peptide) enzymatic assay of ADAMTS-5 activity
Format: biochemical
stated.conditions: FRET peptide substrate 8 μM, 10 nM enzyme, 37° C. 3 hours
readout.kind: pIC50
Numbers only, as −log10 of the molar value.

>>> recorded_number("[2H]C1([2H])c2cc(Cl)c(Cl)cc2C([2H])([2H])N1C(=O)CC[C@@]1(C2CC2)NC(=O)NC1=O")
7.49
>>> recorded_number("O=C1NC(=O)[C@](C[C@@H](CO)C(=O)N2Cc3cc(Cl)c(C(F)(F)F)cc3C2)(C2CC2)N1 (single isomer, unassigned)")
7.82
>>> recorded_number("C[C@@H]1CN(C(=O)CC[C@@]2(C3CC3)NC(=O)NC2=O)CCc2ccc(F)cc21 (single isomer, unassigned)")
7.32
>>> recorded_number("O=C1NC(=O)[C@](CCC(=O)N2Cc3ccc(OC(F)(F)F)cc3C2)(C2CC2)N1")
6.32

Please give pIC50, item by item, for the list that follows.
1. Cn1ccnc1C1(CCC(=O)N2Cc3ccc(C(F)(F)F)cc3C2)NC(=O)NC1=O (stereo not shown)
2. O=C1NC(=O)C(CC(CO)C(=O)N2Cc3cc(Cl)c(Cl)cc3C2)(C2CC2)N1 (stereo not shown)

output:
1: 7.05; 2: 7.85

Please give pIC50, item by item, for the list that follows.
1. O=C1NC(=O)[C@](CCC(=O)N2Cc3ccc(F)cc3C2)(C2CC2)N1
2. O=C1NC(=O)[C@](CCC(=O)N2Cc3cccc(F)c3C2)(C2CC2)N1

output:
[6.43, 5.21]

Please give pIC50, item by item, for the list that follows.
1. COc1cc2c(cc1Cl)CN(C(=O)C(C)C[C@@]1(C3CC3)NC(=O)NC1=O)C2 (stereo partly shown)
2. COc1ccc2c(c1)CN(C(=O)CC[C@@]1(C3CC3)NC(=O)NC1=O)C2
3. O=C1NC(=O)[C@](CCC(=O)N2Cc3cc(Cl)c(I)cc3C2)(C2CC2)N1
4. CC1CN(C(=O)CC[C@@]2(C3CC3)NC(=O)NC2=O)CCc2cc(Cl)c(Cl)cc21 (stereo partly shown)
5. O=C1NC(=O)[C@](CCC(=O)N2Cc3cccnc3C2)(C2CC2)N1
6. O=C1NC(=O)[C@](CCC(=O)N2Cc3cc(Cl)c(Cl)cc3C2)(C2CC2)N1
7. O=C1NC(=O)C(CCC(=O)N2Cc3cc(Cl)c(Cl)cc3C2)(c2ccccn2)N1 (stereo not shown)
8. Nc1cc2c(cc1Cl)CN(C(=O)CC[C@@]1(C3CC3)NC(=O)NC1=O)C2

output:
1. 7.82
2. 6.44
3. 6.77
4. 7.89
5. 5.82
6. 7.43
7. 7.38
8. 6.96
